# ASSAY_TARGET: AsPC-1 HiBiT-KRASG12D (Homo sapiens, UniProt P01116, G12D)
# Construct: insert the HiBiT tag onto the N-terminus of one or more of the endogenous KRAS alleles; endogenous in cells; host or cells: AsPC-1 (ATCC CRL-1682), CRISPR-Cas9 knock-in clone, one tagged allele
# Sequence (P01116 1-188 isoform P01116-2 G12D): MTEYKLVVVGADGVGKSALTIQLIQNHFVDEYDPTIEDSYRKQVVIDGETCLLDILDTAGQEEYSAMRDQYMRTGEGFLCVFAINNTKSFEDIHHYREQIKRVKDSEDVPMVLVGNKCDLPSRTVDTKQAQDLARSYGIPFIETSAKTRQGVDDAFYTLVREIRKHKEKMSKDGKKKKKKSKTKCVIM
# TEST_METHOD_NOTES: HiBiT degradation assay (G12D), AsPC-1 HiBiT-KRASG12D cells
# Assay type: cell-based
# CONDITION_INFO: AsPC-1 HiBiT-KRASG12D cells, 24 hours treatment, HiBiT luminescence
PARAMETER_MEASURED: DC50

Batch request: DC50 per item, same order as input.
1. CCc1cccc2cc(O)cc(-c3ncc4c(N5C[C@H]6CC[C@@H](C5)N6)nc(OC[C@@H]5CC[C@@H](COC(=O)N6CCC(Oc7cc([C@@H](C(=O)N8C[C@H](O)C[C@H]8C(=O)N[C@@H](C)c8ccc(-c9scnc9C)cc8)C(C)C)on7)CC6)N5C)nc4c3F)c12
2. CCc1cccc2cc(O)cc(-c3ncc4c(N5CC6CCC(C5)N6)nc(OCCN5CCC(CC6CN(c7cc([C@@H](C(=O)N8C[C@H](O)C[C@H]8C(=O)N[C@@H](C)c8ccc(-c9ccnn9C)cc8)C(C)C)on7)C6)CC5)nc4c3F)c12 (single isomer, unassigned)
3. CCc1cccc2cc(O)cc(-c3ncc4c(N5CC6CCC(C5)N6)nc(OCCN5CCC(CN6CCN(c7cc([C@H](C(=O)N8C[C@H](O)C[C@H]8C(=O)N[C@@H](C)c8ccc(-c9scnc9C)cc8)C(C)C)on7)CC6)CC5)nc4c3F)c12 (relative stereo) [Compound 276]
4. CCc1cccc2cc(O)cc(-c3ncc4c(N5CC6CCC(C5)N6)nc(OCCN5CC[C@@H]6[C@@H](CCN6c6cc([C@@H](C(=O)N7C[C@H](O)C[C@H]7C(=O)N[C@@H](C)c7ccc(-c8scnc8C)cc7)C(C)C)on6)C5)nc4c3F)c12 (relative stereo)

600 to 1000 nM
1000 to 3000 nM
< 600 nM
1000 to 3000 nM

====

# ASSAY_TARGET: AsPC-1 HiBiT-KRASG12D (Homo sapiens, UniProt P01116, G12D)
# Construct: insert the HiBiT tag onto the N-terminus of one or more of the endogenous KRAS alleles; endogenous in cells; host or cells: AsPC-1 (ATCC CRL-1682), CRISPR-Cas9 knock-in clone, one tagged allele
# TEST_METHOD_NOTES: HiBiT degradation assay (G12D), AsPC-1 HiBiT-KRASG12D cells
# Type: cell-based
# CONDITION_INFO: ASPC1, AsPC-1 HiBiT-KRASG12D cells, 24 hours treatment, maximum degradation observed
PARAMETER_MEASURED: Dmax

Example compounds with recorded Dmax:
{"COMPOUND": "CCc1cccc2cc(O)cc(-c3ncc4c(N5CC6CCC(C5)N6)nc(OC[C@@]56CCCN5[C@H](CN5CCN(c7cc([C@H](C(=O)N8C[C@H](O)C[C@H]8C(=O)N[C@@H](C)c8ccc(-c9scnc9C)cc8)C(C)C)on7)CC5)CC6)nc4c3F)c12 [Compound 94]", "ASSAY_TARGET": "AsPC-1 HiBiT-KRASG12D (Homo sapiens, UniProt P01116, G12D)", "RESULT": "80 to 100%"}
{"COMPOUND": "CCc1cccc2cc(O)cc(-c3ncc4c(N5CC6CCC(C5)N6)nc(OC[C@]56CCCN5[C@H](COC(=O)N5CC7(C5)CN(c5cc([C@H](C(=O)N8C[C@H](O)C[C@H]8C(=O)N[C@@H](C)c8ccc(-c9scnc9C)cc8)C(C)C)on5)C7)CC6)nc4c3F)c12 [Compound 340]", "ASSAY_TARGET": "AsPC-1 HiBiT-KRASG12D (Homo sapiens, UniProt P01116, G12D)", "RESULT": "80 to 100%"}

Value sought for every listed compound: Dmax.
1. CCc1cccc2cc(O)cc(-c3ncc4c(N5CCCCCC5)nc(OC[C@]56CCCN5[C@H](COC(=O)N5CC(Oc7cc([C@@H](C(=O)N8C[C@H](O)C[C@H]8C(=O)N[C@@H](C)c8ccc(-c9scnc9C)cc8)C(C)C)on7)C5)CC6)nc4c3F)c12 [Compound 305]
2. CCc1cccc2cc(O)cc(-c3ncc4c(N5CC6CCC(C5)N6)nc(OC[C@@]56CCCN5[C@H](COC(=O)N5CC(Oc7cc([C@@H](C(=O)N8C[C@H](O)C[C@H]8C(=O)N[C@@H](C)c8ccc(-c9scnc9C)cc8)C(C)C)on7)C5)CC6)nc4c3F)c12 [Compound 127]

20 to 60%
< 20%

I'm hoping you can list Dmax for every compound here, please.
1. CCc1cccc2cc(O)cc(-c3ncc4c(N5CCCCCC5)nc(OC[C@@]56CCCN5[C@H](COC(=O)N5CCN(c7cc([C@H](C(=O)N8C[C@H](O)C[C@H]8C(=O)N[C@@H](C)c8ccc(-c9scnc9C)cc8)C(C)C)on7)CC5)CC6)nc4c3F)c12 [Compound 42]
2. C#Cc1c(F)ccc2cc(O)cc(-c3ncc4c(N5CC6CCC(C5)N6)nc(OCCN5CCC(C(C)(C)N6CCN(c7cc([C@H](C(=O)N8C[C@H](O)C[C@H]8C(=O)N[C@@H](C)c8ccc(-c9scnc9C)cc8)C(C)C)on7)CC6)CC5)nc4c3F)c12 [Compound 175]
3. CCc1cccc2cc(O)cc(-c3ncc4c(N5CC6CCC(C5)N6)nc(OC[C@]56CCCN5[C@H](COC(=O)N5C[C@@H](C)N(c7cc([C@@H](C(=O)N8C[C@H](O)C[C@H]8C(=O)N[C@@H](C)c8ccc(-c9scnc9C)cc8)C(C)C)on7)C[C@@H]5C)CC6)nc4c3F)c12 [Compound 297]

1: 80 to 100%; 2: 80 to 100%; 3: < 20%

Dear colleague, could you please provide Dmax for the compounds listed below?
1. CCc1cccc2cc(O)cc(-c3ncc4c(N5CC6CCC(C5)N6)nc(OC[C@]56CCCN5[C@H](COC(=O)N5CCN(c7cc([C@@H](C(=O)N8C[C@H](O)C[C@H]8C(=O)N[C@@H](C)c8ccc(-c9scnc9C)cc8)C(C)C)on7)C[C@H]5C)CC6)nc4c3F)c12 [Compound 125]
2. CCc1cccc2cc(O)cc(-c3ncc4c(N5CC6CCC(C5)N6)nc(OC[C@@H]5CC[C@@H](COC(=O)N6CCN(c7cc([C@@H](C(=O)N8C[C@H](O)C[C@H]8C(=O)N[C@@H](C)c8ccc(-c9scnc9C)cc8)C(C)C)on7)C[C@@H]6C)N5C)nc4c3F)c12 [Compound 280]
3. CCc1cccc2cc(O)cc(-c3ncc4c(N5CC6CCC(C5)N6)nc(OCCN5CCC(COC6(C(=O)N[C@H](C(=O)N7C[C@H](O)C[C@H]7C(=O)N[C@@H](C)c7ccc(-c8scnc8C)cc7)C(C)(C)C)CC6)CC5)nc4c3F)c12 [Compound 9]
4. C#Cc1c(F)ccc2cc(O)cc(-c3ncc4c(N5CC6CCC(C5)N6)nc(OCCN5CCC6(CC5)CC(Oc5cc([C@@H](C(=O)N7C[C@H](O)C[C@H]7C(=O)N[C@@H](C)c7ccc(-c8scnc8C)cc7)C(C)C)on5)C6)nc4c3F)c12 [Compound 159]
5. C#Cc1c(F)ccc2cc(O)cc(-c3ncc4c(N5CC6CCC(C5)N6)nc(OCCN5CCC(CN6CCN(c7cc([C@@H](C(=O)N8C[C@H](O)C[C@H]8C(=O)N[C@@H](C)c8ccc(-c9ccnn9C)cc8)C(C)C)on7)CC6)CC5)nc4c3F)c12 [Compound 170]

1. 20 to 60%
2. 20 to 60%
3. 80 to 100%
4. 60 to 80%
5. 20 to 60%

For each of the compounds below, state Dmax.
1. CCc1cccc2cc(O)cc(-c3ncc4c(N5CCCCCC5)nc(OC[C@@]56CCCN5[C@H](COC(=O)N5CCN(c7cc([C@H](C(=O)N8C[C@H](O)C[C@H]8C(=O)N[C@@H](C)c8ccc(-c9scnc9C)cc8)C(C)C)on7)[C@H](C)C5)CC6)nc4c3F)c12 [Compound 229]
2. CCc1cccc2cc(O)cc(-c3ncc4c(N5CC6CCC(C5)N6)nc(OC[C@]56CCCN5[C@H](COC(=O)N5CC(COc7cc([C@H](C(=O)N8C[C@H](O)C[C@H]8C(=O)N[C@@H](C)c8ccc(-c9scnc9C)cc8)C(C)C)on7)C5)CC6)nc4c3F)c12 [Compound 121]
3. CCc1cccc2cc(O)cc(-c3ncc4c(N5CC6CCC(C5)N6)nc(OC[C@@]56CCCN5[C@H](COc5cc([C@H](C(=O)N7C[C@H](O)C[C@H]7C(=O)N[C@@H](C)c7ccc(-c8scnc8C)cc7)C(C)C)on5)CC6)nc4c3F)c12 [Compound 29]

1. 80 to 100%
2. 80 to 100%
3. 80 to 100%
